Ref: ChEMBL document CHEMBL4020761

Assay Explanation: Plasma concentration in Sprague-Dawley rat at 0.2 mg/kg, iv administered as cassette dose after 10 mins by LC-MS/MS analysis
Format: ADME, organism-based
Please use y whenever concentration at 10 min is not below 40 ng/mL, and n whenever it is.

>>> assigned_category("CNCc1cn(S(=O)(=O)c2cccnc2Cl)c(-c2cccnc2F)c1F")
"n"

Ask | Quick check, concentration at 10 min >= 40 ng/mL? `CNCc1cn(S(=O)(=O)c2ccco2)c(-c2cccnc2F)c1F`
Reply | n

Ask | Decide: concentration at 10 min of `CNCc1cn(S(=O)(=O)c2cccnc2C)c(-c2cccnc2F)c1F` >= 40 ng/mL?
Reply | n

Ask | Decide: is the reported value of concentration at 10 min for `CNCc1cn(S(=O)(=O)c2ccccn2)c(-c2cccnc2F)c1F` equal to or greater than 40 ng/mL?
Reply | n

Ask | Confirm if concentration at 10 min reported for the compound `CNCc1cn(S(=O)(=O)c2cccc(OC)n2)c(-c2cccnc2F)c1F` is 40 ng/mL or above.
Reply | y

Ask | Determine whether this compound has concentration at 10 min no lower than 40 ng/mL: `CNCc1cn(S(=O)(=O)c2cccc(C)n2)c(-c2cccnc2F)c1F`
Reply | y

Ask | Please check the record `CNCc1cn(S(=O)(=O)c2ccc(F)cn2)c(-c2cccnc2F)c1F` and state if its concentration at 10 min is at or above 40 ng/mL.
Reply | n

Ask | Given the entry `CNCc1cn(S(=O)(=O)c2ccoc2)c(-c2cccnc2F)c1F` , answer whether its concentration at 10 min meets or surpasses 40 ng/mL.
Reply | n

Ask | Given the entry `CNCc1cn(S(=O)(=O)c2ccc(OC)cn2)c(-c2cccnc2F)c1F` , answer whether its concentration at 10 min meets or surpasses 40 ng/mL.
Reply | y
